- Test system: A498 renal
- assayText: NCI-60 one-dose screen, 48 h
- experimentalConditions: 10 µM unless noted
The panel holds about 83,000 compounds, 20% with a hit somewhere; the sample as a whole holds those more often. The source made the active and inactive calls. How the source made its calls: active means growth percent below 10; inactive means the rest.
A correct response names exactly one class from True for active, False for inactive

Exam item: Hi, sorry to bother you, what did the test record for Cc1ccc2c(n1)C(=O)C(Cl)=C(Nc1ccc(C(=O)OC(C)(C)C)cc1)C2=O ?
Marked response: False

Exam item: Hi, sorry to bother you, what did the test record for O=C1C(N2CCN(c3ccccc3)CC2)=C(Cl)C(=O)c2ncccc21 ?
Marked response: False

Exam item: Hi, sorry to bother you, what did the test record for O=S(=O)(NCCCNc1nccc(-c2[nH]c(-c3ccccc3)nc2-c2ccc(F)c(O)c2)n1)c1ccccc1 ?
Marked response: False

Exam item: Hi, sorry to bother you, what did the test record for C#C[C@]1(O)CC[C@H]2[C@@H]3CC=C4c5sc(Nc6cccc(F)c6)nc5CC[C@]4(C)[C@H]3CC[C@@]21C ?
Marked response: False

Exam item: Hi, sorry to bother you, what did the test record for C#Cc1nc(/C=C\CCCCCCC(=O)NO)cs1 ?
Marked response: False

Exam item: Hi, sorry to bother you, what did the test record for O=C(CCCCCCNC(=O)c1csc(Br)n1)NO ?
Marked response: True

Exam item: Hi, sorry to bother you, what did the test record for CCCCCCNC(=O)Oc1ccc(/C(=C(/C)c2ccc(OC)cc2)c2ccc(OCCN3CCCCCC3)cc2)cc1 ?
Marked response: False

Exam item: Hi, sorry to bother you, what did the test record for O=C(Nc1ccc(N2CCOCC2)cc1)Nc1ccc2c(ccn2C(=O)c2cccc(F)c2)c1 ?
Marked response: False

Exam item: Hi, sorry to bother you, what did the test record for O=C(/C=C/c1cccc(C(F)(F)F)c1)Nc1cccc(C(F)(F)F)c1 ?
Marked response: False

Exam item: Hi, sorry to bother you, what did the test record for CN(C)c1ccc(/C=N/Nc2nc(N/N=C/c3ccc(N(C)C)cc3)nc(N3CCCCC3)n2)cc1 ?
Marked response: False

Exam item: Hi, sorry to bother you, what did the test record for CC1=C(C)C(=O)C(Nc2ccc(C)c(C)c2)=C(Br)C1=O ?
Marked response: False

Exam item: Hi, sorry to bother you, what did the test record for CC1CC(=O)C2=C(C1)Nc1ccc(Br)cc1CC2c1c[nH]c2ccc(Br)cc12 (centres undefined) ?
Marked response: False

Exam item: Hi, sorry to bother you, what did the test record for Brc1ccc2[nH]cc(-c3nn4cc(-c5nccs5)nc4s3)c2c1 ?
Marked response: False

Exam item: Hi, sorry to bother you, what did the test record for CCCCSC1=C(Cl)CN(c2ccc(Cl)cc2)C1=O ?
Marked response: False

Exam item: Hi, sorry to bother you, what did the test record for NS(=O)(=O)c1cccc(Nc2nc(SCC(=O)c3ccc(Cl)cc3)nc3c2CCC3)c1 ?
Marked response: False

Exam item: Hi, sorry to bother you, what did the test record for CN1CCN(c2ccc(Nc3nc(NCCNS(=O)(=O)c4ccc5ccccc5c4)c4sccc4n3)cc2)CC1 ?
Marked response: False

Exam item: Hi, sorry to bother you, what did the test record for Cc1cc(NS(=O)(=O)c2ccc(NC(=O)CSc3nc4ccccc4c(=O)n3-c3ccccc3)cc2)no1 ?
Marked response: False

Exam item: Hi, sorry to bother you, what did the test record for Cc1[nH]c(C(=O)Nc2ccc(S(=O)(=O)N3CCCCC3)cc2OCCOCCOCCOCCOCCOCCOCCOCCOCCOc2cc(S(=O)(=O)N3CCCCC3)ccc2NC(=O)c2[nH]c(C)c3c2CCCCC3=O)c2c1C(=O)CCCC2 ?
Marked response: True

Exam item: Hi, sorry to bother you, what did the test record for O=C(CSc1nc2ccccc2c(=O)n1-c1ccccc1)N/N=C/c1ccc(Oc2ccc(Cl)cc2)cc1 ?
Marked response: False

----------
For each entry below, report its growth value.
- Tested on: OVCAR-4 ovarian
- assayText: NCI-60 one-dose screen, 48 h (100 = growth as untreated, 0 = no growth, -100 = all killed)
- experimentalConditions: 10 µM unless noted
- Experimental: Growth inhibition of the OVCAR-4 human tumor cell line is measured as a screen for anti-cancer activity. Cells are grown in 96 well plates and exposed to the test compound for 48 hours. Compounds are tested at a single concentration, which is 10^-5 M for most compounds. The reported endpoint is percent growth (GI% or GIPRCNT), where numbers from 0 - 100% represent growth inhibition, and numbers from -100% - 0 represent cell death. For example, a value of 40 represents 60% growth inhibition. […]
Compounds without any hit were thinned out: in the full panel of roughly 83,000, 20% have a hit.
# value in %; strip the unit string

Exam item: Lab request: please report growth under test system OVCAR-4 ovarian for COc1ccc2c(c1)c(-c1nn3cc(-c4ccncc4)nc3s1)cn2C
Marked response: 82.3

Exam item: Lab request: please report growth under test system OVCAR-4 ovarian for O=C(CSc1nc2ccccc2c(=O)n1-c1ccccc1)N/N=C/c1ccc(Oc2ccc(Br)cc2)cc1
Marked response: 81.7

Exam item: Lab request: please report growth under test system OVCAR-4 ovarian for Cc1cc(Br)ccc1-n1cc(C#N)c(N)c1C(=O)c1ccc(Br)cc1
Marked response: 114

Exam item: Lab request: please report growth under test system OVCAR-4 ovarian for COc1ccc(Cn2cc(C#N)c(N)c2C(C)=O)cc1
Marked response: 92.9

Exam item: Lab request: please report growth under test system OVCAR-4 ovarian for CS(=O)(=O)c1ccc(/C(=N/N=C(N)N)c2ccc(F)cc2)cc1
Marked response: 101

----------
- Tested on: NCI-H23 lung
- assayText: NCI-60 one-dose screen, 48 h
- experimentalConditions: 10 µM unless noted
The panel holds about 83,000 compounds, 20% with a hit somewhere; the sample as a whole holds those more often. Calls of active or inactive are those of the source. How the source made its calls: active means growth percent below 10; inactive means the rest.
A correct response names exactly one class from active, inactive

Exam item: Hi, sorry to bother you, what did the test record for O=C(NNc1nc2cc(F)cc(F)c2n2cccc12)c1cccnn1 ?
Marked response: inactive

Exam item: Hi, sorry to bother you, what did the test record for COc1cc(-c2nc(-c3ccccc3)[nH]c2-c2ccnc(NCCCNS(=O)(=O)c3cccc(F)c3)n2)ccc1F ?
Marked response: inactive

Exam item: Hi, sorry to bother you, what did the test record for O=C1[C@@H]2Cc3c([nH]c4ccccc34)[C@@H](c3ccc(Cl)cc3)N2C(=O)CN1C1CCN(Cc2c(F)cccc2F)CC1 ?
Marked response: inactive

Exam item: Hi, sorry to bother you, what did the test record for COC(=O)c1cccc(NC2=CC(=O)C(C)=C(C)C2=O)c1 ?
Marked response: inactive

Exam item: Hi, sorry to bother you, what did the test record for Clc1ccc2[nH]cc(-c3nn4cc(-c5cccnc5)nc4s3)c2c1 ?
Marked response: inactive

Exam item: Hi, sorry to bother you, what did the test record for O=C(Nc1ccc(Cl)c(C(F)(F)F)c1)Nc1ccc2c(ccn2C(=O)c2cccc(F)c2)c1 ?
Marked response: inactive

Exam item: Hi, sorry to bother you, what did the test record for O=C(CCCCCCNC(=O)C(O)(O)C(F)(F)F)Nc1ncc(-c2ccc(Br)cc2)s1 ?
Marked response: active

Exam item: Hi, sorry to bother you, what did the test record for Cc1[nH]c(C(=O)Nc2ccccc2OCc2cccc(C(=O)NCCN)c2)cc1Cl ?
Marked response: inactive

Exam item: Hi, sorry to bother you, what did the test record for C#CCOc1cccc(-c2nc(N)nc(Nc3ccccc3SSc3ccccc3Nc3nc(N)nc(-c4cccc(OCC#C)c4)n3)n2)c1 ?
Marked response: active

Exam item: Hi, sorry to bother you, what did the test record for Brc1cc(-c2cc(-c3ccc4c(c3)OCCO4)[nH]n2)cs1 ?
Marked response: inactive

Exam item: Hi, sorry to bother you, what did the test record for Cn1cc(C2=C(c3coc4cc(Br)ccc34)C(=O)NC2=O)c2ccccc21 ?
Marked response: inactive

Exam item: Hi, sorry to bother you, what did the test record for N#C/C(=N\Nc1ccc(F)cc1)C(=O)Nc1cc(-c2ccccc2)nn1-c1ccccc1 ?
Marked response: active

Exam item: Hi, sorry to bother you, what did the test record for Fc1ccc(-c2cn3c(-c4c[nH]c5ccc(Br)cc45)csc3n2)cc1 ?
Marked response: inactive

Exam item: Hi, sorry to bother you, what did the test record for Cc1ccc(-c2nc(SCC(=O)c3ccccc3)nc(Nc3ccc(S(N)(=O)=O)cc3)c2C#N)cc1 ?
Marked response: inactive

Exam item: Hi, sorry to bother you, what did the test record for CN1CCN(c2ccc(Nc3nc(NCCNS(=O)(=O)c4ccccc4)c4sccc4n3)cc2)CC1 ?
Marked response: inactive

Exam item: Hi, sorry to bother you, what did the test record for O=C1C(N2CCN(c3ccccc3)CC2)=C(Cl)C(=O)c2ncccc21 ?
Marked response: inactive

Exam item: Hi, sorry to bother you, what did the test record for COc1cc2cc(Oc3ccc(NC(=O)Nc4ccc(F)c(C(F)(F)F)c4)cc3)c(C)nc2cc1OCCN(C)C ?
Marked response: inactive

Exam item: Hi, sorry to bother you, what did the test record for CC(C)(C)OC(=O)NCc1ccc(CNc2c([N+](=O)[O-])cnc3ccccc23)cc1 ?
Marked response: inactive

Exam item: Hi, sorry to bother you, what did the test record for CCNC(=O)Oc1ccc(/C(=C(/C)c2ccc(OC)cc2)c2ccc(OCCN3CCCCCC3)cc2)cc1 ?
Marked response: inactive

Hello, the source for this data is PubChem BioAssay (NCI), in case you need it.
